TEST_SYSTEM: ligand binding domain of human ROR gamma (Homo sapiens)
Construct: NM_001001523; expressed in transfected cells; host or cells: HEK293T
Sequence (P51449 268-518): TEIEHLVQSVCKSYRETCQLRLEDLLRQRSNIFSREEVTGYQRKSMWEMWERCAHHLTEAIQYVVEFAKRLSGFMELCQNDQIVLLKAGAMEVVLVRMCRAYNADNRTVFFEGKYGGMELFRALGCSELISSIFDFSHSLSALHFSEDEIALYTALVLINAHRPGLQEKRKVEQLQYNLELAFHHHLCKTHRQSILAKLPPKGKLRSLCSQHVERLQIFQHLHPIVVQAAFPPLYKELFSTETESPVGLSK
METHOD_DESCRIPTION: ROR gamma reporter gene assay (GAL4-RORγ LBD luciferase, Dual-Glo)
Format: cell-based
RUN_CONDITIONS: HEK293T cells transfected with pM-ROR gamma, 8 concentrations 3.5 nM to 10.5 μM, 24 h incubation; read-out: result (pIC50, inhibition of RORγ transcriptional activity) (converted)
# thresholds on IC50 define classes: zone 1 = under 100000 pM, zone 2 = from 100000 pM up to 400000 pM, zone 3 = 400000 pM and over

See these solved cases before continuing.
O=C(CN(Cc1cc(F)cc(F)c1)C(=O)c1cnn([C@H]2CC[C@H](C(=O)O)CC2)c1CO)c1c(Cl)cncc1Cl [Example 159] ... zone 3
C[C@]1(C(=O)O)CC[C@H](n2ncc(C(=O)N(CC(=O)c3c(Cl)cncc3Cl)CC3(O)CCCC3)c2C(F)(F)F)CC1 [Example 324] ... zone 2
CC(F)(F)c1c(C(=O)N(CC(=O)c2c(Cl)cncc2Cl)Cc2ccc(F)cc2)cnn1[C@H]1CC[C@H](C(=O)O)CC1 [Example 84] ... zone 2

Problem: Category of CC(C)(C)CN(CC(=O)c1c(Cl)cncc1Cl)C(=O)c1cnn([C@H]2CC[C@](C)(C(=O)O)CC2)c1C#N [Example 310] , please.
Result: zone 3

Problem: Category of C[C@]1(C(=O)O)CC[C@@H](n2ncc(C(=O)N(CC(=O)c3c(Cl)cncc3Cl)Cc3ccc(F)cc3)c2C(F)(F)F)CC1 [Example 79] , please.
Result: zone 2

Problem: Category of COc1cccc(Cl)c1C(=O)CN(CC(C)(C)C)C(=O)c1cnn([C@H]2CC[C@](C)(C(=O)O)CC2)c1C(F)(F)F [Example 253] , please.
Result: zone 1

Problem: Category of O=C(c1cnn([C@H]2CC[C@H](C(=O)O)CC2)c1C(F)(F)F)N(Cc1ccc(F)cc1)CC(O)c1c(Cl)cncc1Cl (stereo partly drawn) [Example 90] , please.
Result: zone 3

Problem: Category of CC1(C)[C@@H]2C[C@H](N(CC(=O)c3c(Cl)cccc3Cl)C(=O)c3cnn(C45CCC(C(=O)O)(CC4)CC5)c3C(F)(F)F)C[C@@H]21 [Example 320] , please.
Result: zone 1

###

Entries and their measured IC50 follow.
TEST_SYSTEM: human RORγ-LBD (Homo sapiens, UniProt P51449)
Construct: made in house; host or cells: E. coli (BL-21)
Sequence (P51449 262-518): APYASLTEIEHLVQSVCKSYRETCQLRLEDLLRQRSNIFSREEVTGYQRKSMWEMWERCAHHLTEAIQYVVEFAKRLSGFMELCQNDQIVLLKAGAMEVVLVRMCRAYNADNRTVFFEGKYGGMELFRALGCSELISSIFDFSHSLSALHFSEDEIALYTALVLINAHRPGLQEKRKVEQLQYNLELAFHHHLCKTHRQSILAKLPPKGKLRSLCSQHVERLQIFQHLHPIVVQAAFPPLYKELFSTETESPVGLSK
METHOD_DESCRIPTION: ROR gamma coactivator peptide recruitment Alphascreen assay (RORγ-LBD binding to GRIP1 coactivator peptide)
Type: biochemical
RUN_CONDITIONS: 5 nM human RORγ-LBD, 30 nM 7-β-hydroxycholesterol, 50 nM biotinylated GRIP1 coactivator peptide, overnight incubation at room temperature; read-out: result (pIC50, RORγ coactivator peptide recruitment Alphascreen assay) (converted)
I'd appreciate it if you included the unit after the number.

C[C@]1(C(=O)O)CC[C@H](n2ncc(C(=O)N(CC(=O)c3c(Cl)cc(F)cc3Cl)CC3CC3)c2C(F)(F)F)CC1 [Example 695] ... 10 nM

Problem: Query IC50 for CC1(C)CC[C@@H]1N(CC(=O)c1c(Cl)cncc1Cl)C(=O)c1cnn([C@H]2CC[C@](C)(C(=O)O)CC2)c1C(F)(F)F [Example 617]
Result: 117 nM

Problem: Query IC50 for C[C@]1(C(=O)O)CC[C@H](n2ncc(C(=O)N(CC(=O)c3c(Cl)cncc3Cl)CC3(C(F)(F)F)CCC3)c2C(F)(F)F)CC1 [Example 799]
Result: 3.89 nM

Problem: Query IC50 for C[C@@]1(CN(CC(=O)c2c(Cl)cncc2Cl)C(=O)c2cnn([C@H]3CC[C@](C)(C(=O)O)CC3)c2C(F)(F)F)CCCO1 [Example 660]
Result: 25.7 nM

Problem: Query IC50 for O=C(c1cnn([C@H]2CC[C@H](C(=O)O)CC2)c1C(F)(F)F)N(CCc1c(Cl)cccc1Cl)Cc1ccc(C(F)(F)F)cc1 [Example 526]
Result: 5.89 nM

Problem: Query IC50 for CC(C)(C)CN(CC(=O)c1c(Cl)cncc1Cl)C(=O)c1cnn([C@H]2C[C@]3(C[C@H](C(=O)O)C3)C2)c1C(F)(F)F (single isomer, unassigned) [Example 837]
Result: 3.72 nM
